Reference for the values: the supplement of paper PMC11417369

# Tested on: PF3D7_0420300 AP2 domain 1 (GST-tagged)
# protocol.description: gcPBM binding intensity (ln(normalized median fluorescence intensity)); higher = stronger DNA binding
Over roughly 25,000 sequences, “ln(normalized median fluorescence intensity)” has its median near 9.3; the highest 2% begin near 10. The sample as a whole holds a higher share of the highest values than the screen did.
This section presents sequences with their documented gcPBM binding intensity (ln) values.

| query.sequence | gcPBM binding intensity (ln) |
| --- | --- |
| AAAAGATAATTATGCACACACACACCCAGACACAAC [CACACA_site5428] | 10.1 |
| TTTTTTATTTTTTACATATTTAGCTCATATTTATAT [GTGCAC_negctrl_site491] | 9.44 |
| TAAATATATAAATACACACACATACACAAAAAAAAA [CACACA_site5890] | 10.1 |
| TATAAATATACAAACACACATACAAACATATATATA [CACACA_site1120] | 9.91 |
| TAATTATGCCAACACACACACACACCCAACTAAAAA [CACACA_site8823] | 10.2 |
| TACATTTAAAAAAAAACACACATATATATATATATA [CACACA_site2535] | 8.99 |
| TGCACGCACAGACACACACACAACTAAAAAATAATG [CACACA_site7250] | 9.72 |
| GTATCAAAAGAATACACACACACATACATATATATA [CACACA_site3796] | 10.2 |
| TATTGTATGGTAGGATATGATGTTATTTGTTATAAT [CACACA_negctrl_site202] | 9.45 |
| GTAATATCAATATAAAGTACACACTATAGTATGTAT [XGTACX_site4714] | 9.52 |
| TAATAAAAATAAAATTGTACTAATAACATTTCATTA [XGTACX_site3703] | 8.94 |
| ATATATCATAATAGAGGTACACATATTATATATATA [XGTACX_site782] | 9.29 |
| TGATATTTTATTATTAAAATATATACATATATATAT [CACACA_negctrl_site1456] | 9.26 |
| GATAATTACGGACACACACACACACGCACAACTAAA [CACACA_site7254] | 10.3 |
| ATATTATATATATACACACACACATGCATGCACCTA [CACACA_site106] | 10.2 |
| TTTTTTATAGTACATTACCAAAAAAAAAAAAAAAAA [GTGCAC_negctrl_site549] | 8.32 |
| AATATAAAAATATAAAAACACACGTAAAAAAATTTA [CACACA_site3399] | 9.73 |
| TATGCACCCAGACACACACACACAACTAAAAAATAA [CACACA_site2567] | 9.96 |
| AAAAAAAAAAAAAACACACATACATACATACATATA [CACACA_site4121] | 9.74 |
| AAAAAAAAAGATCACACACACATAAATATAAACAAA [CACACA_site5285] | 10.2 |
| TATAAGAGAATATATACACACAAAAATATATACAGT [CACACA_site1668] | 9.89 |
| AAGATAATTACGCACACACACACACGCCCACAACTA [CACACA_site7255] | 10.2 |
| ATTTAGAAAAAATATACACACAGCCTAAACATGCAT [CACACA_site4067] | 9.64 |
| ACAAAAAAAAACGTGGTGCATTAATAATATTGTATA [GTGCAC_site9469] | 9.43 |
| AAAAATAAAAATTGCACACTAAAAAATTACGCACGA [CACACA_site3418] | 9.59 |
| ACCAAAAAAAAAAAAAAAAAAATATACATATATATA [GTGCAC_negctrl_site582] | 9.05 |
| TTACACATATATATAAATATATATAAATATATATAT [CACACA_negctrl_site150] | 9.08 |
| TATAAATATATATATACACACACATACACAAAAAAA [CACACA_site9191] | 10.2 |
| TCAAAAATAAAGATCACACATATATATATATATATA [CACACA_site4381] | 9.2 |
| TTTTGTTATATTCAATATTTATATATTATAAATATA [CACACA_negctrl_site1705] | 9.11 |
| GATAATTATGGACACACACACACACCCACAACTAAA [CACACA_site8824] | 10.3 |
| TATATACATACATATACACACATATATATATATATA [CACACA_site401] | 9.44 |
| ATATTATATATATACACACACACATGCATGCACATA [CACACA_site7917] | 10.1 |
| AAAGAAATGAAATATACACACATACATATATACATA [CACACA_site9335] | 9.81 |
| TAAAAAATAAAAATTGCACACTAAAAAATTACGCAC [CACACA_site9129] | 9.48 |
| AAAAAAAAAAAACACACACACACACCGACACATACA [CACACA_site5576] | 10.2 |
| AACAAAATTGAAGGAACACACATACAGATATATATA [CACACA_site4264] | 9.81 |
| ATATTATAGATATACACACACACATGCATGCACATA [CACACA_site6203] | 10.1 |
